# Tested on: CCRIS mutagenicity, Ames/micronucleus/aberration tests
# test.method.notes: CCRIS mutagenicity studies
# condition.info: Test System: E. COLI; Strain/Indicator: WP2 UVRA; Metabolic Activation: RAT, LIVER, S-9, AROCLOR 1254; Method: PREINCUBATION
Calls of active or inactive are those of the source. How the calls were made is not given here.
Classes to choose from: yes = active, no = inactive

Examples with answers:
INSERT INTO assay_data (compound, target_entity, label_class) VALUES
  ('O=CC1CO1 (centres undefined)', 'CCRIS mutagenicity, Ames/micronucleus/aberration tests', 'yes'),
  ('C[C@H]1SC[C@@H](C(=O)N[C@@H](Cc2cnc[nH]2)C(=O)N2CCC[C@H]2C(N)=O)NC1=O', 'CCRIS mutagenicity, Ames/micronucleus/aberration tests', 'no'),
  ('CC(=O)OC/N=[N+](/C)[O-]', 'CCRIS mutagenicity, Ames/micronucleus/aberration tests', 'no');

Answer briefly: the call reported for `[NH-]CCC(=O)[N-][C@@H](Cc1cnc[nH]1)C(=O)[O-].[Zn+2]` in this assay.
no
